Molecular target: Aldo-keto reductase family 1 member B10 (Homo sapiens)
Sequence (O60218 whole entry): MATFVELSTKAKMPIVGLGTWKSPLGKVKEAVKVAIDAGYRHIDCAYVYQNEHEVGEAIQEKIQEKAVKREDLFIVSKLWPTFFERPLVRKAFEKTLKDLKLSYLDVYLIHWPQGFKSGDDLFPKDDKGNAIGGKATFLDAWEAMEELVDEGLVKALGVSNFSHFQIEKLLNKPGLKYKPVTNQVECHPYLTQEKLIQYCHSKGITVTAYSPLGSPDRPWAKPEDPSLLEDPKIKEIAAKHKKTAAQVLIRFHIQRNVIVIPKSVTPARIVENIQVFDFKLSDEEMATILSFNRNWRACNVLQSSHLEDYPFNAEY
Assay: Inhibition of human recombinant AKR1B10
Metric name: IC50 (µM)
Number in µM, nothing else.

Cc1ccc(Cl)c(Nc2ccccc2C(=O)O)c1Cl	9.8

Observed IC50, Aldo-keto reductase family 1 member B10 (Homo sapiens), CC1=C(CC(=O)O)c2cc(F)ccc2/C1=C\c1ccc([S+](C)[O-])cc1 (configuration not stated) : 0.35

====

Biological target: Aldo-keto reductase family 1 member B10 (Homo sapiens)
Assay: Inhibition of AKR1B10 (unknown origin)
Recorded IC50, one value per entry.
Number in µM, nothing else.

The cases that follow already have their IC50 on record.
CC(=O)[C@H]1CC[C@H]2[C@@H]3CC[C@H]4C[C@@H](O)CC[C@]4(C)[C@H]3CC[C@]12C	0.5
C[C@@]12CCC[C@H]1[C@@H]1C[C@H](O)C3=C[C@@H](O)CC[C@]3(C)[C@H]1CC2	0.5
COc1ccc(/N=c2\oc3cc(O)ccc3cc2C(=O)Nc2ccccn2)cc1	0.5
COc1cc(O)ccc1/C=C/C(=O)OCCCc1cccc(O)c1	0.5

Input `C[C@]12CCC(=O)C[C@@H]1CC[C@@H]1[C@@H]2CC[C@]2(C)[C@@H](C(=O)CO)CC[C@@H]12` . Output IC50: 0.37

Input C[C@]12CC[C@H](O)C[C@@H]1CC[C@@H]1[C@@H]2CC[C@]2(C)C(=O)CC[C@@H]12 [EPIANDROSTERONE] . Output IC50: 0.32

Input `CC(=O)[C@H]1CC[C@H]2[C@@H]3CC[C@H]4CC(=O)CC[C@]4(C)[C@H]3CC[C@]12C` . Output IC50: 0.44

Input `C[C@H](CCC(=O)O)[C@H]1CC[C@H]2[C@@H]3CC[C@@H]4C[C@@H](O)CC[C@]4(C)[C@H]3CC[C@]12C` . Output IC50: 0.02

====

Recorded pIC50, one value per entry.
Target: Aldo-keto reductase family 1 member B1 (Homo sapiens)
Test: Inhibition of human recombinant AKR1B1
# pIC50 = -log10(concentration in molar units)

COc1c(O)cc2oc3cc(O)c(CC=C(C)C)c(O)c3c(=O)c2c1CC=C(C)C [MANGOSTIN]	5.39
Cc1cc(O)c2c(c1)C(=O)c1cc(O[C@@H]3OC[C@](O)(CO)[C@H]3O)cc(O)c1C2=O [FRANGULIN B]	5.26
C=CCc1cc(-c2cccc(CC=C)c2O)ccc1O	4.44
COc1cc(/C=C/C(=O)CC(=O)/C=C/c2ccc(O)cc2)ccc1O	5.92

Input `CC(C)=CCc1c(O)cc2oc3cc(O)c(O)c(CC=C(C)C)c3c(=O)c2c1O` . Output pIC50: 6.54

Input O=C(/C=C/c1ccc(O)c(O)c1)c1ccc(O)cc1O [BUTEIN] . Output pIC50: 6.30

====

Target: Aldo-keto reductase family 1 member B1 (Homo sapiens, UniProt P15121)
Experiment: Inhibition of N-terminal 6his-tagged wild type human recombinant AKR1B1 extracted from Escherichia coli BL21 (DE3) by fluorescence based analysis
Metric name: IC50 (nM)
Number in nM, nothing else.

Observed IC50, Aldo-keto reductase family 1 member B1 (Homo sapiens, UniProt P15121), `NC(=O)[C@@H]1C[C@]2(NC(=O)NC2=O)c2cc(F)ccc2O1` : 80

====

Recorded IC50, one value per entry.
Biological target: Aldo-keto reductase family 1 member B1 (Homo sapiens)
Experiment: Inhibition of human recombinant AKR1B1 by fluorescence based analysis

O=C(O)Cc1ccccc1Nc1c(Cl)cccc1Cl	> 100 µM
Cc1ccc(Cl)c(Nc2ccccc2C(=O)O)c1Cl	> 100 µM

From here, focus on the item given below.
Input CC1=C(CC(=O)O)c2cc(F)ccc2/C1=C\c1ccc([S+](C)[O-])cc1 (stereo not drawn) . Output IC50: 0.21 µM

====

Recorded log10 IC50, one value per entry.
Target: Aldo-keto reductase family 1 member B10 (Homo sapiens)
Test: Inhibition of AKR1B10 (unknown origin)
Record value = log10 of IC50 given in µM.

The cases that follow already have their log10 IC50 on record.
O=c1c(-c2ccc(O)cc2)coc2cc(O)cc(O)c12	0.74
C[C@H](CCC(=O)O)[C@H]1CC[C@H]2[C@@H]3C[C@@H](O)[C@@]4(O)C[C@@H](O)CC[C@]4(C)[C@H]3CC[C@]12C	-0.08
Cc1c2cc(O)c(=O)cc-2oc2cc(O)c(O)cc12	-0.40
C[C@]12CC[C@@H]3c4ccc(O)cc4CC[C@H]3[C@@H]1CC[C@@H]2O	0.48
COc1ccc(/N=c2\oc3cc(O)ccc3cc2C(=O)Nc2cccc(C)n2)cc1OC	-1.52
COc1cc(O)ccc1/C=C/C(=O)OCCc1ccccc1	-2.00

Observed log10 IC50, Aldo-keto reductase family 1 member B10 (Homo sapiens), `C[C@]12CC[C@@H]3c4ccc(O)cc4CC[C@H]3[C@@H]1CCC2=O` : 0.20

Observed log10 IC50, Aldo-keto reductase family 1 member B10 (Homo sapiens), `COc1ccc(OC)c(/N=c2\oc3cc(O)ccc3cc2C(=O)Nc2ccccn2)c1` : -1.70

Observed log10 IC50, Aldo-keto reductase family 1 member B10 (Homo sapiens), `O=C(/C=C/c1ccc(O)c(O)c1)O[C@H]1C[C@@](O)(C(=O)O)C[C@H](O)[C@@H]1O` : 0.90

Observed log10 IC50, Aldo-keto reductase family 1 member B10 (Homo sapiens), `C/C(=C\c1ccc(C(=O)O)cc1Br)c1ccc2c(c1)C(C)(C)CCC2(C)C` : 0.79

Observed log10 IC50, Aldo-keto reductase family 1 member B10 (Homo sapiens), `C[C@@]12CCC[C@H]1[C@@H]1CC(=O)C3=CC(=O)CC[C@]3(C)[C@H]1CC2` : -0.09

Observed log10 IC50, Aldo-keto reductase family 1 member B10 (Homo sapiens), `Oc1c(F)c(F)c(-c2c(F)c(F)c(O)c(F)c2F)c(F)c1F` : 0.00

Observed log10 IC50, Aldo-keto reductase family 1 member B10 (Homo sapiens), `COc1ccc2c(C(=S)N(C)CC(=O)O)cccc2c1C(F)(F)F` : -1.30

Observed log10 IC50, Aldo-keto reductase family 1 member B10 (Homo sapiens), `C[C@H](CCC(=O)O)[C@H]1CC[C@H]2[C@@H]3C[C@@H](O)[C@@]4(O)C[C@@H](O)CC[C@]4(CO)[C@H]3CC[C@]12C` : -0.12

Observed log10 IC50, Aldo-keto reductase family 1 member B10 (Homo sapiens), `COc1cc(O)c(CC=C(C)C)c2c1C(=O)C[C@@H](c1ccc(O)cc1)O2` : 0.04

Observed log10 IC50, Aldo-keto reductase family 1 member B10 (Homo sapiens), `CC(C)=CCC1=C(O)[C@](O)(CC=C(C)C)C(=O)C(C(=O)CC(C)C)=C1O` : 0.29

Observed log10 IC50, Aldo-keto reductase family 1 member B10 (Homo sapiens), `O=C(NCCCc1cccc(O)c1)c1cc2ccc(O)cc2oc1=O` : -0.10

Observed log10 IC50, Aldo-keto reductase family 1 member B10 (Homo sapiens), `C[C@]12CCC(=O)C[C@@H]1CC[C@@H]1[C@@H]2CC[C@]2(C)C(=O)CC[C@@H]12` : -0.41

Observed log10 IC50, Aldo-keto reductase family 1 member B10 (Homo sapiens), `COc1ccc(/N=c2\oc3cc(O)ccc3cc2C(=O)Nc2ccccn2)c(OC)c1` : -2.00

====

Molecular target: Aldo-keto reductase family 1 member B1 (Homo sapiens)
Assay: Inhibition of AKR1B1 (unknown origin)
Metric name: pIC50
# pIC50 = -log10(concentration in molar units)

C[C@]12CCC(=O)C[C@@H]1CC[C@@H]1[C@@H]2CC[C@]2(C)[C@@H](C(=O)CO)CC[C@@H]12	4.26
CC(=O)[C@H]1CC[C@H]2[C@@H]3CC[C@@H]4CC(=O)CC[C@]4(C)[C@H]3CC[C@]12C	5.05
C[C@H](CCC(=O)O)[C@H]1CC[C@H]2[C@@H]3C[C@@H](O)[C@@]4(O)C[C@@H](O)CC[C@]4(CO)[C@H]3CC[C@]12C	5.27
COc1cc(O)c(CC=C(C)C)c2c1C(=O)C[C@@H](c1ccc(O)cc1)O2	6.24
C[C@]12CC[C@@H]3c4ccc(O)cc4CC[C@H]3[C@@H]1CCC2=O [ESTRONE]	4.51

Input C[C@]12CC[C@H](O)C[C@@H]1CC[C@@H]1[C@@H]2CC[C@]2(C)C(=O)CC[C@@H]12 [EPIANDROSTERONE] . Output pIC50: 4.43

Input CC(=O)[C@H]1CC[C@H]2[C@@H]3CC[C@H]4C[C@@H](O)CC[C@]4(C)[C@H]3CC[C@]12C [SEPRANOLONE] . Output pIC50: 4.41

Input C[C@]12CC[C@@H]3c4ccc(O)cc4CC[C@H]3[C@@H]1CC[C@@H]2O [ESTRADIOL] . Output pIC50: 4.62

Input `O=C(O)Cn1ccc(=O)n(Cc2ccc(Cl)c([N+](=O)[O-])c2)c1=O` . Output pIC50: 5.00

Input `C[C@@]12CCC[C@H]1[C@@H]1CC(=O)C3=CC(=O)CC[C@]3(C)[C@H]1CC2` . Output pIC50: 3.80

Input `COc1c(Cn2c(=O)ccn(CC(=O)O)c2=O)cc(Br)c(Br)c1Br` . Output pIC50: 5.44

Input C[C@H](CCC(=O)O)[C@H]1CC[C@H]2[C@@H]3CC[C@@H]4CCCC[C@]4(C)[C@H]3CC[C@]12C [URSOCHOLANIC ACID] . Output pIC50: 4.80

Input O=c1c(O)c(-c2cc(O)c(O)c(O)c2)oc2cc(O)cc(O)c12 [MYRICETIN] . Output pIC50: 6.21

Input `Oc1c(F)c(F)c(-c2c(F)c(F)c(O)c(F)c2F)c(F)c1F` . Output pIC50: 6.52

Input O=c1cc(-c2ccccc2)oc2cc(O)cc(O)c12 [CHRYSIN] . Output pIC50: 6.54

Input `C[C@@]12CCC[C@H]1[C@@H]1C[C@H](O)C3=C[C@@H](O)CC[C@]3(C)[C@H]1CC2` . Output pIC50: 4.17

Input `CC(=O)[C@H]1CC[C@H]2[C@@H]3CC[C@H]4CC(=O)CC[C@]4(C)[C@H]3CC[C@]12C` . Output pIC50: 4.89

Input `C[C@]12CCC(=O)C[C@@H]1CC[C@@H]1[C@@H]2CC[C@]2(C)C(=O)CC[C@@H]12` . Output pIC50: 4.60
